biological target: T1, PCSK9 protein (UniProt Q8NBP7 31-692, limits assumed); experiment: PCSK9-LDLR in vitro binding assay kit, OD450/540; peptide 100 µM; inhibition of PCSK9 binding to LDLR
T1 construct: Kit reagent; also called proprotein convertase subtilisin/kexin type 9
Bridge positions count the residues as written; N and C are the ends. Ends that are not written are not given here.
readout name: Inhibitory rate (%)
Give bare numbers, in %.

WEEALDWVGICTASIPPICQGTVFTS (disulfide 11-19 (inferred), Contains an anti-elastase scaffold, with a disulfide bond between its two Cys) [PCSK9_5EC] ... 95.3
WEEYLDYVGICTASIPPICQGTVFTS (disulfide 11-19 (inferred), Contains an anti-elastase scaffold, with a disulfide bond between its two Cys) [PCSK9_6EC] ... 99.4

Consider now this further binder.
Query block: Provide only the value of recorded Inhibitory rate (%) for TVFTSGFCTYSIPPQCYGWEEYLDWV (disulfide 8-16 (inferred), Contains an anti-chymotrypsin scaffold, with a disulfide bond between its two Cys) [PCSK9_9CH]
Result block: 102
